System: Rattus norvegicus
Test: Neurotoxicity in Sprague-Dawley albino rat assessed as motor impairment at 30 mg/kg, po after 0.5 hrs by rotarod test
Type: toxicity, organism-based
Design: dose 30 mg/kg, route oral
Details: in vivo

# Compound, Activity
records = [
    ("O=C1NC(c2ccccc2)(C2CC2)C(=O)N1CN1CCOCC1 (stereo not drawn)", "Non-toxic"),
    ("O=C(c1ccccc1)N1CCN(CN2C(=O)NC(c3ccccc3)(C3CC3)C2=O)CC1 (stereo not drawn)", "Non-toxic"),
    ("O=C1NC(=O)C(c2ccccc2)(C2CC2)N1 (stereo not drawn)", "Non-toxic"),
    ("O=C1NC(c2ccccc2)(C2CC2)C(=O)N1CN1CCN(CCc2ccccc2)CC1 (stereo not drawn)", "Non-toxic"),
    ("O=C1NC(c2ccccc2)(C2CC2)C(=O)N1CN1CCc2ccccc2C1 (stereo not drawn)", "Non-toxic"),
    ("O=C(OCc1ccccc1)N1CCN(CN2C(=O)NC(c3ccccc3)(C3CC3)C2=O)CC1 (stereo not drawn)", "Non-toxic"),
    ("CC(c1ccccc1)N1CCN(CN2C(=O)NC(c3ccccc3)(C3CC3)C2=O)CC1 (stereo not drawn)", "Non-toxic"),
    ("O=C1NC(=O)C(c2ccccc2)(c2ccccc2)N1", "Non-toxic"),
]

====

Test system: Mus musculus
Experiment: Neurotoxicity in ip dosed CF1 albino mouse assessed as minimum dose required to cause impair in motor coordination after 0.5 hrs by rotarod test
Format: toxicity, organism-based
Conditions: in vivo
Recorded MTC for the following molecules

# Molecule, MTC
measured = [
    ("O=C1NC(c2ccc(Cl)cc2)(C2CC2)C(=O)N1CN1CCN(CCc2ccccc2)CC1 (stereo not given)", "30 mg/kg"),
    ("COCCN1CCN(CN2C(=O)NC(c3ccccc3)(C3CC3)C2=O)CC1 (stereo not given)", "30 mg/kg"),
    ("O=C1NC(c2ccccc2)(C2CC2)C(=O)N1CN1CCc2ccccc2C1 (stereo not given)", "100 mg/kg"),
    ("O=C1NC(=O)C(c2ccccc2)(c2ccccc2)N1", "100 mg/kg"),
    ("O=C(OCc1ccccc1)N1CCN(CN2C(=O)NC(c3ccc(Cl)cc3)(C3CC3)C2=O)CC1 (stereo not given)", "300 mg/kg"),
]

====

System: Mus musculus
Test: Neurotoxicity in ip dosed CF1 albino mouse assessed as minimum dose required to cause impair in motor coordination after 4 hrs by rotarod test
Assay type: toxicity, organism-based
Conditions: in vivo
Recorded MTC for the following compounds

# Compound, Test System, MTC [mg/kg]
rows = [
    ("O=C(OCc1ccccc1)N1CCN(CN2C(=O)NC(c3ccc(Cl)cc3)(C3CC3)C2=O)CC1 (stereo unspecified)", "Mus musculus", 300),
    ("O=C1NC(=O)C(c2ccccc2)(c2ccccc2)N1", "Mus musculus", 100),
    ("O=C1NC(=O)C(c2ccc(Cl)cc2)(C2CC2)N1 (stereo unspecified)", "Mus musculus", 300),
    ("O=C1NC(c2ccc(Cl)cc2)(C2CC2)C(=O)N1CN1CCN(CCc2ccccc2)CC1 (stereo unspecified)", "Mus musculus", 30),
    ("COCCN1CCN(CN2C(=O)NC(c3ccccc3)(C3CC3)C2=O)CC1 (stereo unspecified)", "Mus musculus", 30),
    ("O=C1NC(c2ccccc2)(C2CC2)C(=O)N1CN1CCN(CCc2ccccc2)CC1 (stereo unspecified)", "Mus musculus", 300),
]
